- target: T1, Human CD3εδ Fc heterodimer (Hu CD3ε Fc + CD3δ Fc-HIS) (human, UniProt P07766 22-126; P04234 22-100)
- T1 construct: range 22-126;range 22-100; Made in HEK 293 cells with a heterologous signal peptide; also called Hu CD3εδ-Fc; CD3εδ Fc-HIS heterodimer; not shown: Fc; Fc followed by HIS tag
- T1 sequence (P07766 22-126, stated change not applied, form in doubt, chain 1 of 2): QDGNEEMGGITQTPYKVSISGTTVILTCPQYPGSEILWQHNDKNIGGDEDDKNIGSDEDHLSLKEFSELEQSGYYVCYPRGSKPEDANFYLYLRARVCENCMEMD
- T1 sequence (P04234 22-100, stated change not applied, form in doubt, chain 2 of 2): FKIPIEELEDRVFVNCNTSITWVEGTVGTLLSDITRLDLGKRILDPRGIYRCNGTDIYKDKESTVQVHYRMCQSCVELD
- assay procedure: BLI (Octet), Fab monovalent, pH 7.4
- Method: ForteBio KD measurements (Biolayer interferometry; BLI). […] Sensors were equilibrated off-line in assay buffer for 30 min and then monitored on-line for 60 seconds for baseline establishment. […] Kinetics were analyzed using the 1:1 binding model. For measuring binding at different pHs, measurements were performed at pre-determined pHs (e.g., pH 7.4 and pH 6.0). […]
recorded endpoint: pKd
Keep it numeric: pKd is minus log10 of the concentration in mol/L.

Reference set (2 entries):
Consider Antibody No. V015 (ADI-76358) Fab (Fab, V domains shown, Fab by papain digestion of the IgG1) VH: QVQLVQSGAEVKKPGASVKVSCKASGFNIKDYYMHWVRQAPGQRLEWMGWIDLENADTIYDAKFQGRVTITRDTSASTAYMELSSLRSEDTAVYYCARDQYGRYFYDVWGQGTLVTVSS VL: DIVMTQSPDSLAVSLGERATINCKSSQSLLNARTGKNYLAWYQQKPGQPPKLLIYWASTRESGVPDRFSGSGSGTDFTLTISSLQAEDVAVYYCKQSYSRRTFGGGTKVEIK . Its measured pKd is 7.25

Value of pKd reported for the binder Antibody No. A002 (ADI-50024) Fab (Fab, V domains shown, Fab by papain digestion of the IgG1) VH: QVQLVQSGAEVKKPGASVKVSCKASGFNIKDYYMHWVRQAPGQRLEWIGWIDLENANTVYDAKFQGRVTITRDTSASTAYMELSSLRSEDTAVYYCARDAYGRYFYDVWGQGTLVTVSS VL: DIVMSQSPDSLAVSLGERATINCKSSQSLLNARTGKNYLAWYQQKPGQPPKLLIYWASTRSSGVPDRFSGSGSGTDFTLTISSLQAEDVAVYYCVQSYFRRTFGGGTKVEIK is 9.00

Now for the binder whose pKd we want.
Per the records, this binder ( Antibody No. V014 (ADI-76357) Fab (Fab, V domains shown, Fab by papain digestion of the IgG1) VH: QVQLVQSGAEVKKPGASVKVSCKASGFDIKDYYMHWVRQAPGQRLEWMGWIDLENANTIYDAKFQGRVTITRDTSASTAYMELSSLRSEDTAVYYCARDQYGRYFYDVWGQGTLVTVSS VL: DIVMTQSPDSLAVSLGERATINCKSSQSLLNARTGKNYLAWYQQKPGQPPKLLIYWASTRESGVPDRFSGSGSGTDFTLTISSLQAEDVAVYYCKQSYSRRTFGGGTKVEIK ) has pKd equal to 7.36
